# targetOrTestSystem: High-affinity choline transporter 1 (Rattus norvegicus)
# test: Effect on uptake amount of [3H]choline in the hippocampal synaptosomes of AF64A-treated rats at a concentration of 10e-5 M.
# appliedConditions: Hippocampus
Listed here are molecules together with their documented HACU improvement.
Write down the value, and be sure its unit follows.

INSERT INTO results (molecule, experimentalresult) VALUES
  ('CN(C)CC(=O)Nc1c2c(nc3ccccc13)CCCC2', '-7%'),
  ('O=C1CN(CC(=O)Nc2c3c(nc4ccccc24)CCCC3)C(=O)N1', '10%'),
  ('CCCC(=O)Nc1c2c(nc3ccccc13)CCCC2', '28%');

Answer briefly: HACU improvement recorded on High-affinity choline transporter 1 (Rattus norvegicus) for CCCCCC(=O)Nc1c2c(nc3ccccc13)CCCC2 2%

Fill in HACU improvement for Nc1c2c(nc3ccccc13)CCCC2 tested with High-affinity choline transporter 1 (Rattus norvegicus). -13%

# return HACU improvement of CC(C)CC(=O)Nc1c2c(nc3ccccc13)CCCC2 (system: High-affinity choline transporter 1 (Rattus norvegicus)) 0%

Consider the molecule CCCCC(=O)Nc1c2c(nc3ccccc13)CCCC2 tested on High-affinity choline transporter 1 (Rattus norvegicus); state its HACU improvement. 18%

System High-affinity choline transporter 1 (Rattus norvegicus). Read-out HACU improvement. Item CC(C)C(=O)Nc1c2c(nc3ccccc13)CCCC2 . Report value. 15%

Under High-affinity choline transporter 1 (Rattus norvegicus): report HACU improvement of CC1C(=O)NC(=O)N1CC(=O)Nc1c2c(nc3ccccc13)CCCC2 (configuration not stated) . 11%

Specify the recorded HACU improvement for O=C(Cn1ccnc1)Nc1c2c(nc3ccccc13)CCCC2 , system: High-affinity choline transporter 1 (Rattus norvegicus). 48%

Look up High-affinity choline transporter 1 (Rattus norvegicus) data: HACU improvement of CC(=O)Nc1c2c(nc3ccccc13)CCCC2 , then report it. -11%

For High-affinity choline transporter 1 (Rattus norvegicus), give HACU improvement of the listed molecule: CCC(=O)Nc1c2c(nc3ccccc13)CCCC2 3%

----------
Recorded HACU improvement for the following molecules
# targetOrTestSystem: High-affinity choline transporter 1 (Rattus norvegicus)
# test: Effect on uptake amount of [3H]choline in the hippocampal synaptosomes of AF64A-treated rats at a concentration of 10e-6 M.
# appliedConditions: Hippocampus
Answer in %, number only, no unit symbol.

Use these answered entries as a reference point.
INSERT INTO measurements (molecule, unitdescriptor, experimentalresult) VALUES
  ('O=C(CN1C(=O)CNC1=O)Nc1c2c(nc3ccccc13)CCCC2', '%', 0),
  ('O=C(CN1CCNC1=O)Nc1c2c(nc3ccccc13)CCCC2', '%', 1),
  ('CCCCCC(=O)Nc1c2c(nc3ccccc13)CCCC2', '%', 5);

Kindly indicate its recorded HACU improvement. Item: O=C(Cn1ccnc1)Nc1c2c(nc3ccccc13)CCCC2 14

Please look at this molecule and report its HACU improvement: CCC(=O)Nc1c2c(nc3ccccc13)CCCC2 1

Find the measured HACU improvement of CCCC(=O)Nc1c2c(nc3ccccc13)CCCC2 and report it. 24

----------
# targetOrTestSystem: High-affinity choline transporter 1 (Rattus norvegicus) (UniProt Q9JMD7)
# Sequence (Q9JMD7 whole entry, looked up): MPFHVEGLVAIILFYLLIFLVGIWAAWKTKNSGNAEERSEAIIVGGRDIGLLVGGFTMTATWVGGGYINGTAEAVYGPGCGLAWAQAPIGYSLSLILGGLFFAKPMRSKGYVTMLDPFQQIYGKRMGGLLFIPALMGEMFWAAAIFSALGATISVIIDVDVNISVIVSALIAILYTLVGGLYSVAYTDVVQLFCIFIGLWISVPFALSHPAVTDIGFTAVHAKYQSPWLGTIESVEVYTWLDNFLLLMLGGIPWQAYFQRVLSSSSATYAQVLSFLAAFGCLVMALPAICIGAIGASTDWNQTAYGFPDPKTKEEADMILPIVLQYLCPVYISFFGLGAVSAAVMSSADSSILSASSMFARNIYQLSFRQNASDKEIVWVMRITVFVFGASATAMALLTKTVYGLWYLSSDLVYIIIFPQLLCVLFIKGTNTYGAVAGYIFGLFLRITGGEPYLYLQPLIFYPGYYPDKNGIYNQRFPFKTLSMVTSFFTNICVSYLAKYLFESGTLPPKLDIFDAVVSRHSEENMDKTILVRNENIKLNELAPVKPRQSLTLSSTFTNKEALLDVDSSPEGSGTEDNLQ
# test: Effect on uptake amount of [3H]choline in the hippocampal synaptosomes of AF64A-treated rats at a concentration of 10e-5 M.
# appliedConditions: Hippocampus
observable: HACU improvement (%)
All answers are understood in %, so give the number only.

Some compounds with recorded HACU improvement:
INSERT INTO measurements (compound, experimentalresult) VALUES
  ('O=C(CN1CCCC1)Nc1c2c(nc3ccccc13)CCCC2', -71),
  ('CNCC(=O)Nc1c2c(nc3ccccc13)CCCC2', 21),
  ('O=C(CN1C(=O)CNC1=O)Nc1c2c(nc3ccccc13)CCCC2', 16),
  ('O=C(CN1CCCC1=O)Nc1c2c(nc3ccccc13)CCCC2', 13);

Please look at the following compound next.
Supply HACU improvement value. Item: O=C(CN1CCNC1=O)Nc1c2c(nc3ccccc13)CCCC2 25

----------
# targetOrTestSystem: High-affinity choline transporter 1 (Rattus norvegicus) (UniProt Q9JMD7)
# test: Effect on uptake amount of [3H]choline in the hippocampal synaptosomes of AF64A-treated rats at a concentration of 10e-7 M.
# appliedConditions: Hippocampus
// HACU improvement lookup, one value per entry

Illustrative cases are given below, each with its answer.
INSERT INTO results (compound, experimentalresult) VALUES
  ('CCC(=O)Nc1c2c(nc3ccccc13)CCCC2', '3%'),
  ('CC1C(=O)NC(=O)N1CC(=O)Nc1c2c(nc3ccccc13)CCCC2 (configuration not stated)', '4%'),
  ('O=C(CN1CCCC1=O)Nc1c2c(nc3ccccc13)CCCC2', '17%');

Tell me measured HACU improvement for CCCCCC(=O)Nc1c2c(nc3ccccc13)CCCC2 please. 11%

Give the reported HACU improvement for this compound. CCCCC(=O)Nc1c2c(nc3ccccc13)CCCC2 -2%

Identify measured HACU improvement corresponding to O=C(CN1CCNC1=O)Nc1c2c(nc3ccccc13)CCCC2 6%

Name the recorded HACU improvement of the compound listed here: Nc1c2c(nc3ccccc13)CCCC2 8%

----------
# targetOrTestSystem: High-affinity choline transporter 1 (Rattus norvegicus)
# test: Effect on uptake amount of [3H]choline in the hippocampal synaptosomes of AF64A-treated rats at a concentration of 10e-6 M.
# appliedConditions: Hippocampus
HACU improvement by entry:
Answer format: numeric, % implied, no suffix.

Write down measured HACU improvement (High-affinity choline transporter 1 (Rattus norvegicus)) for this molecule. CC1C(=O)NC(=O)N1CC(=O)Nc1c2c(nc3ccccc13)CCCC2 (stereo not drawn) 2

Report value: HACU improvement, system: High-affinity choline transporter 1 (Rattus norvegicus), molecule: CC(=O)Nc1c2c(nc3ccccc13)CCCC2 -10

Name the value of HACU improvement reported for CN(C)CC(=O)Nc1c2c(nc3ccccc13)CCCC2 when tested on High-affinity choline transporter 1 (Rattus norvegicus). -13

Fill: HACU improvement (High-affinity choline transporter 1 (Rattus norvegicus)) for this molecule CC(C)CC(=O)Nc1c2c(nc3ccccc13)CCCC2 -22

For High-affinity choline transporter 1 (Rattus norvegicus), give HACU improvement of the listed molecule: CNCC(=O)Nc1c2c(nc3ccccc13)CCCC2 18

----------
# targetOrTestSystem: High-affinity choline transporter 1 (Rattus norvegicus)
# test: Effect on uptake amount of [3H]choline in the hippocampal synaptosomes of AF64A-treated rats at a concentration of 10e-5 M.
# appliedConditions: Hippocampus
# Lookup of reported HACU improvement keyed by entry
Numbers only; they are read as %.

Recorded results for 2 molecules are shown here.
INSERT INTO assay_data (molecule, experimentalresult) VALUES
  ('O=C(O)CNCC(=O)Nc1c2c(nc3ccccc13)CCCC2', 27),
  ('O=C(CN1CCCCC1=O)Nc1c2c(nc3ccccc13)CCCC2', 5);

Write down HACU improvement measured for item CC(NCC(=O)Nc1c2c(nc3ccccc13)CCCC2)C(=O)O (stereo not drawn) 13

----------
# targetOrTestSystem: High-affinity choline transporter 1 (Rattus norvegicus)
# test: Effect on uptake amount of [3H]choline in the hippocampal synaptosomes of AF64A-treated rats at a concentration of 10e-6 M.
# appliedConditions: Hippocampus
observable: HACU improvement (%)
Answer in %, number only, no unit symbol.

INSERT INTO results (compoundsmiles, targetortestsystem, experimentalresult) VALUES
  ('O=C(CN1CCCC1=O)Nc1c2c(nc3ccccc13)CCCC2', 'High-affinity choline transporter 1 (Rattus norvegicus)', 14);

Name the recorded HACU improvement of the compound listed here: O=C1CN(CC(=O)Nc2c3c(nc4ccccc24)CCCC3)C(=O)N1 11

Annotate the compound O=C(O)CNCC(=O)Nc1c2c(nc3ccccc13)CCCC2 with its measured HACU improvement. -2

Where these numbers come from: ChEMBL document CHEMBL1152067
